# Tested on: human orexin-1 receptor (Homo sapiens (Human), UniProt O43613)
# Sequence (O43613 whole entry): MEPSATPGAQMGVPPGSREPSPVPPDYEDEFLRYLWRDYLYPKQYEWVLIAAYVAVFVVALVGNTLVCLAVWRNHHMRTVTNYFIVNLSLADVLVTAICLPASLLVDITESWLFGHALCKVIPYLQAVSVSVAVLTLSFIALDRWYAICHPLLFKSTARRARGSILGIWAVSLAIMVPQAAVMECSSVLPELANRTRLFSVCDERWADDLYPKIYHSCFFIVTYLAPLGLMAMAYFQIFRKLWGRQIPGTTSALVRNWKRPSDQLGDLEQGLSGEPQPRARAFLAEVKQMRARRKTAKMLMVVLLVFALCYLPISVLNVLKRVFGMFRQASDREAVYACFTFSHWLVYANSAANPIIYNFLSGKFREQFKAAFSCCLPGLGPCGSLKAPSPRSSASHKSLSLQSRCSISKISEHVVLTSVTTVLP
# Protocol: In vitro assay: intracellular calcium measurements (FLIPR), antagonistic activity
# Measurement parameters: CHO cells expressing human orexin-1 receptor, orexin-A agonist, geometric mean, read-out: IC50 Ox1
Ranges used to classify IC50: c1: < 20 nM; c2: ≥ 20 nM and < 60 nM; c3: ≥ 60 nM

The examples below pair each entry with its known result.
C=C1C[C@@H](c2nc3cccc(C)c3[nH]2)N(C(=O)c2nc(C)sc2-c2ccc(Cl)cc2)C1
c3
CCn1c([C@]2(C)CCCN2C(=O)c2ccc(C)cc2-n2nccn2)nc2cc(C)c(C)cc21
c1
Cc1c(Cl)ccc2c1nc([C@]1(C)CCCN1C(=O)c1cc(Cl)ccc1-n1nccn1)n2C
c1
CCn1c([C@]2(C)CCCN2C(=O)c2cc(C)ccc2-c2cccc(C)c2)nc2cc(C)c(C)cc21
c2
C=C1C[C@@H](c2nc3cc(C(C)(C)C)ccc3[nH]2)N(C(=O)c2cc(Cl)ccc2-n2nccn2)C1
c2
CSc1cccc2nc([C@@H]3CCCN3C(=O)c3cncnc3-c3cc(Cl)cc(Cl)c3)[nH]c12
c2
Cc1ccc(-c2nc(C)sc2C(=O)N2CC[C@H](C)[C@H]2c2nc3c(C)cc(Cl)cc3[nH]2)cc1
c2
Cc1nc(C(=O)N2CCCC2c2nc3cc(Cl)c(Cl)cc3[nH]2)c(-c2ccccc2)s1 (stereo not drawn)
c2
C=C1C[C@@H](c2nc3cc(C)c(C)cc3[nH]2)N(C(=O)c2ccc(C)cc2-n2nccn2)C1
c1
CSc1ccc2nc([C@@H]3CCCN3C(=O)c3cnc(C)nc3-c3cc(Cl)cc(Cl)c3)[nH]c2c1
c3

Exercise: Into which category would you place COc1cc2nc([C@]3(C)CCCN3C(=O)c3nc(C)ccc3-n3nccn3)[nH]c2cc1OC ?
Key: c3

Exercise: Into which category would you place CO[C@H]1CN(C(=O)c2nc(C)ccc2-n2cccn2)C(C)(c2nc3c(C)c(Cl)ccc3[nH]2)C1 (stereo partly drawn) ?
Key: c1

Exercise: Into which category would you place Cc1ccc(-c2ccccc2F)c(C(=O)N2CCC[C@@]2(C)c2nc3c(C)c(C)ccc3[nH]2)c1 ?
Key: c1

Exercise: Into which category would you place Cc1nc(C(=O)N2CC[C@H](C)[C@H]2c2nc3cc(C(F)(F)F)ccc3[nH]2)c(-c2cc(F)cc(F)c2)s1 ?
Key: c1

Exercise: Into which category would you place Cc1nc(C(=O)N2CCC[C@H]2c2nc3cccc(Cl)c3[nH]2)c(-c2cccc(Cl)c2)s1 ?
Key: c2

Exercise: Into which category would you place COc1ccccc1-c1sc(C)nc1C(=O)N1CC[C@H](C)[C@H]1c1nc2cc(C(F)(F)F)ccc2[nH]1 ?
Key: c1

====

# Tested on: human orexin-1 receptor (Homo sapiens (Human))
# Protocol: In vitro assay: intracellular calcium measurements (FLIPR), antagonistic activity
# Measurement parameters: CHO cells expressing human orexin-1 receptor, orexin-A agonist, geometric mean, read-out: IC50 Ox1
Hi there, I'd appreciate the recorded pIC50 for every entry that follows.
Numbers only, as −log10 of the molar value.

C=C1CN(C(=O)c2nc(C)sc2-c2ccc(C)c(C)c2)C(C)(c2nc3cc(OC)ccc3[nH]2)C1 (racemic) [Ex. 6.145]
7.68
Cc1cccc(-c2ccc(C)cc2C(=O)N2CCC[C@@]2(C)c2nc3cc(C)c(C)cc3n2CCF)c1 [Ex. 7.28]
7.85
Cc1c(Cl)ccc2[nH]c([C@]3(C)CCCN3C(=O)c3ccccc3-n3nccn3)nc12 [Ex. 5.46]
8.22
Cc1ccc(-c2ccc3c(c2)OCO3)c(C(=O)N2CCC[C@@]2(C)c2nc3cc(C(F)(F)F)c(Cl)cc3[nH]2)c1 [Ex. 5.156]
7.42
CSc1cccc2nc([C@@H]3CCCN3C(=O)c3nc(C4CC4)sc3-c3ccccc3)[nH]c12 [Ex. 1.61]
7.68

Look up pIC50 for the entries below, preserving their order.
1. Cc1c(Cl)ccc2[nH]c([C@]3(C)CCCN3C(=O)c3c(F)cccc3-c3ccccn3)nc12 [Ex. 5.221]
2. CSc1cccc2nc([C@@H]3CCCN3C(=O)c3nc(C)sc3-c3cccc(F)c3)[nH]c12 [Ex. 1.65]
3. COc1ccc(-c2ccccc2C(=O)N2CCC[C@@]2(C)c2nc3cc(C)c(C)cc3[nH]2)cc1 [Ex. 5.102]

Key:
[7.72, 7.20, 7.47]

Look up pIC50 for the entries below, preserving their order.
1. COc1ccc(-c2nc(C(=O)N3CCC[C@@]3(C)c3nc4cc(Cl)c(C(F)(F)F)cc4[nH]3)c(-c3ccc(F)cc3)s2)cc1 [Ex. 5.293]
2. C=C1C[C@@H](c2nc3cc(Cl)c(C(F)(F)F)cc3[nH]2)N(C(=O)c2cc(C)ccc2-n2nccn2)C1 [Ex. 6.67]

Key:
1: 7.11; 2: 8.05
